- Tested on: DC3F/AD
- protocolNotes: In vitro activity in DC-3F/AD cell line Ratio of IC50(actinomycin D alone) / IC50(actinomycin D + modulator) at a concentration of 10 uM
reportedEndpoint: Fold reversion

>  <molecule>
C=CCNc1nc(NCC=C)nc(NCCN2CCC(NCC3c4ccccc4CCc4ccccc43)CC2)n1

>  <reportedEndpoint>
Fold reversion

>  <qualifier>
<

>  <experimentalValue>
25

$$$$
>  <molecule>
C=CCNc1nc(NCC=C)nc(N2CCC(N(C)CC(c3ccccc3)c3ccccc3)CC2)n1

>  <reportedEndpoint>
Fold reversion

>  <qualifier>
=

>  <experimentalValue>
1418

$$$$
>  <molecule>
C=CCNc1nc(NCC=C)nc(N2CCC(N(CC=C)C(c3ccc(F)cc3)c3ccc(F)cc3)CC2)n1

>  <reportedEndpoint>
Fold reversion

>  <qualifier>
=

>  <experimentalValue>
627

$$$$
>  <molecule>
COc1ccc(CCN(C)CCCC(C#N)(c2ccc(OC)c(OC)c2)C(C)C)cc1OC (centres undefined)

>  <reportedEndpoint>
Fold reversion

>  <qualifier>
=

>  <experimentalValue>
34

$$$$
>  <molecule>
C=CCNc1nc(NCC=C)nc(N2CCC(NCC(c3ccccc3)S(=O)(=O)c3ccccc3)CC2)n1 (centres undefined)

>  <reportedEndpoint>
Fold reversion

>  <qualifier>
=

>  <experimentalValue>
817

$$$$
>  <molecule>
C=CCNc1nc(NCC=C)nc(N2CCC(NCC3c4ccccc4NC(=O)c4ccccc43)CC2)n1 (centres undefined)

>  <reportedEndpoint>
Fold reversion

>  <qualifier>
=

>  <experimentalValue>
583

$$$$
>  <molecule>
C=CCNc1nc(NCC=C)nc(NCC(O)CN2CCN(C3c4ccccc4CCc4ccccc43)CC2)n1 (centres undefined)

>  <reportedEndpoint>
Fold reversion

>  <qualifier>
<

>  <experimentalValue>
25

$$$$
>  <molecule>
C=CCNc1nc(NCC=C)nc(NCCN2CCN(C3c4ccccc4CCc4ccccc43)CC2)n1

>  <reportedEndpoint>
Fold reversion

>  <qualifier>
<

>  <experimentalValue>
25

$$$$
>  <molecule>
C=CCNc1nc(NCC=C)nc(N2CCC(NC(c3ccccc3)c3ccccc3)CC2)n1

>  <reportedEndpoint>
Fold reversion

>  <qualifier>
=

>  <experimentalValue>
1828

$$$$
>  <molecule>
C=CCNc1nc(NCC=C)nc(N2CCC(NCC3c4ccccc4CCCc4ccccc43)CC2)n1

>  <reportedEndpoint>
Fold reversion

>  <qualifier>
<

>  <experimentalValue>
25

$$$$
>  <molecule>
C=CCNc1nc(NCC=C)nc(N2CCC(NCC3c4ccccc4Oc4ccccc43)CC2)n1

>  <reportedEndpoint>
Fold reversion

>  <qualifier>
=

>  <experimentalValue>
2584

$$$$
>  <molecule>
C=CCNc1nc(NCC=C)nc(N2CCC(NCC(c3c(C)cccc3C)c3c(C)cccc3C)CC2)n1

>  <reportedEndpoint>
Fold reversion

>  <qualifier>
=

>  <experimentalValue>
374

$$$$
>  <molecule>
CN(C)c1nc(N(C)C)nc(N2CCC(NCC3c4ccccc4CCc4ccccc43)CC2)n1

>  <reportedEndpoint>
Fold reversion

>  <qualifier>
=

>  <experimentalValue>
544

$$$$
>  <molecule>
C=CCNc1nc(NCC=C)nc(N2CCC(SCCC(c3ccccc3)c3ccccc3)CC2)n1

>  <reportedEndpoint>
Fold reversion

>  <qualifier>
=

>  <experimentalValue>
248

$$$$
>  <molecule>
C=CCNc1nc(NCC=C)nc(N2CCC(NCC3c4ccccc4-c4ccccc43)CC2)n1

>  <reportedEndpoint>
Fold reversion

>  <qualifier>
=

>  <experimentalValue>
589

$$$$
>  <molecule>
C=CCNc1nc(NCC=C)nc(N2CCC(NCC(c3cc(OC)cc(OC)c3)c3ccccc3C)CC2)n1 (centres undefined)

>  <reportedEndpoint>
Fold reversion

>  <qualifier>
<

>  <experimentalValue>
25

$$$$
>  <molecule>
C=CCNc1nc(NCC=C)nc(NC2CCN(C(c3ccc(F)cc3)c3ccc(F)cc3)CC2)n1

>  <reportedEndpoint>
Fold reversion

>  <qualifier>
<

>  <experimentalValue>
25

$$$$
>  <molecule>
C=CCNc1nc(NCC=C)nc(N2CCC(NC3c4ccccc4CCc4ccccc43)CC2)n1

>  <reportedEndpoint>
Fold reversion

>  <qualifier>
=

>  <experimentalValue>
1626

$$$$
>  <molecule>
C=CCNc1nc(NCC=C)nc(N2CCN(CCC(c3ccccc3)c3ccccc3)CC2)n1

>  <reportedEndpoint>
Fold reversion

>  <qualifier>
=

>  <experimentalValue>
598

$$$$

---

- Tested on: DC3F/AD
- protocolNotes: In vitro activity in DC-3F/AD cell line Ratio of IC50(actinomycin D alone) / IC50(actinomycin D + modulator) at a concentration of 10 uM

>  <compound>
C=CCNc1nc(NCC=C)nc(N2CCC(NCC3c4ccccc4C=Cc4ccccc43)CC2)n1

>  <systemTested>
DC3F/AD

>  <qualifier>
<

>  <Fold reversion>
25

$$$$
>  <compound>
C=CCNc1nc(NCC=C)nc(N2CCC(CNC3c4ccccc4CCc4ccccc43)CC2)n1

>  <systemTested>
DC3F/AD

>  <qualifier>
=

>  <Fold reversion>
544

$$$$
>  <compound>
C=CCNc1nc(NCC=C)nc(N2CCC(NC3CC4c5ccccc5C3c3ccccc34)CC2)n1 (centres undefined)

>  <systemTested>
DC3F/AD

>  <qualifier>
=

>  <Fold reversion>
4264

$$$$
>  <compound>
C=CCNc1nc(NCC=C)nc(N2CCN(NC(=O)C3c4ccccc4CCc4ccccc43)CC2)n1

>  <systemTested>
DC3F/AD

>  <qualifier>
=

>  <Fold reversion>
2174

$$$$
>  <compound>
C=CCNc1nc(NCCC)nc(N2CCC(NCC3c4ccccc4CCc4ccccc43)CC2)n1

>  <systemTested>
DC3F/AD

>  <qualifier>
=

>  <Fold reversion>
4455

$$$$
>  <compound>
C=CCNc1nc(NCC=C)nc(N2CCC(NCC34CCC(c5ccccc53)c3ccccc34)CC2)n1

>  <systemTested>
DC3F/AD

>  <qualifier>
=

>  <Fold reversion>
422

$$$$
>  <compound>
C=CCNc1nc(NCC)nc(N2CCC(NCC3c4ccccc4COc4ccccc43)CC2)n1 (centres undefined)

>  <systemTested>
DC3F/AD

>  <qualifier>
=

>  <Fold reversion>
2630

$$$$
>  <compound>
C=CCNc1nc(NCC=C)nc(NN2CCN(C(c3ccc(F)cc3)c3ccc(F)cc3)CC2)n1

>  <systemTested>
DC3F/AD

>  <qualifier>
=

>  <Fold reversion>
5344

$$$$
>  <compound>
C=CCNc1nc(NCC=C)nc(N2CCC(SC(c3ccccc3)c3ccccc3)CC2)n1

>  <systemTested>
DC3F/AD

>  <qualifier>
=

>  <Fold reversion>
1202

$$$$

---

- System: DC3F/AD
- protocolNotes: Percent of cell viability remaining after incubating the cells with the modulator alone a concentration of 5 uM
- Type: functional, Cricetulus griseus

>  <molecule>
C=CCNc1nc(NCCC)nc(N2CCC(NCC3c4ccccc4CCc4ccccc43)CC2)n1

>  <Viability / %>
85

$$$$
>  <molecule>
C=CCNc1nc(NCC=C)nc(NCC(O)CN2CCC(NCC3c4ccccc4CCc4ccccc43)CC2)n1 (stereo not given)

>  <Viability / %>
98

$$$$
>  <molecule>
C=CCNc1nc(NCC=C)nc(N2CCC(NCC(c3ccc(F)cc3)C3CCCCC3)CC2)n1 (stereo not given)

>  <Viability / %>
85

$$$$
>  <molecule>
C=CCNc1nc(NCC=C)nc(NCC(O)CN2CCC(NC3c4ccccc4CCc4ccccc43)CC2)n1 (stereo not given)

>  <Viability / %>
77

$$$$
>  <molecule>
C=CCNc1nc(NCC=C)nc(N2CCC(N(C)CC3c4ccccc4CCc4ccccc43)CC2)n1

>  <Viability / %>
70

$$$$

---

- System: KB
- protocolNotes: Increase in adriamycin uptake in modulator-treated cells relative to untreated KB-A1 cells at a concentration of 5 uM
- Type: functional, Homo sapiens

>  <compound>
C=CCNc1nc(NCC=C)nc(N2CCC(NCC3c4ccccc4Oc4ccccc43)CC2)n1

>  <Increase>
43.9

$$$$
>  <compound>
C=CCNc1nc(NCCC)nc(N2CCC(NCC(c3ccccc3)c3ccccc3)CC2)n1

>  <Increase>
51.5

$$$$
>  <compound>
C=CCNc1nc(NCC=C)nc(N2CCC(NCC3c4ccccc4-c4ccccc43)CC2)n1

>  <Increase>
20.6

$$$$
>  <compound>
C=CCNc1nc(OC)nc(N2CCC(NCC3c4ccccc4CCc4ccccc43)CC2)n1

>  <Increase>
40.7

$$$$
>  <compound>
C=CCNc1nc(NCC=C)nc(N2CCC(NCC3c4ccccc4N(C)S(=O)(=O)c4cc(Cl)ccc43)CC2)n1 (centres undefined)

>  <Increase>
39.8

$$$$
>  <compound>
C=CCNc1nc(NCC=C)nc(N2CCC(NCC3c4ccccc4CSc4ccccc43)CC2)n1 (centres undefined)

>  <Increase>
57.3

$$$$
>  <compound>
C=CCNc1nc(NCC=C)nc(N2CCC(NCC(c3cc(OC)cc(OC)c3)c3ccccc3C)CC2)n1 (centres undefined)

>  <Increase>
41.4

$$$$
>  <compound>
COc1ccc(CCN(C)CCCC(C#N)(c2ccc(OC)c(OC)c2)C(C)C)cc1OC (centres undefined)

>  <Increase>
13.4

$$$$
>  <compound>
CN(C)c1nc(N(C)C)nc(N2CCC(NCC3c4ccccc4CCc4ccccc43)CC2)n1

>  <Increase>
16.4

$$$$
>  <compound>
C=CCNc1nc(NCC=C)nc(N2CCC(NCC3c4ccccc4C=Cc4ccccc43)CC2)n1

>  <Increase>
59.2

$$$$
>  <compound>
C=CCNc1nc(NCC)nc(N2CCC(NCC3c4ccccc4CCc4ccccc43)CC2)n1

>  <Increase>
45.9

$$$$
>  <compound>
C=CCNc1nc(NCC)nc(N2CCC(NCC3c4ccccc4COc4ccccc43)CC2)n1 (centres undefined)

>  <Increase>
38.8

$$$$
>  <compound>
C=CCNc1nc(NCC=C)nc(N2CCC(NCC34CCC(c5ccccc53)c3ccccc34)CC2)n1

>  <Increase>
22.2

$$$$
>  <compound>
C=CCNc1nc(NCC=C)nc(N2CCN(CC3c4ccccc4CCc4ccccc43)CC2)n1

>  <Increase>
29.7

$$$$
>  <compound>
C=CCNc1nc(NCC=C)nc(NCC2CCN(CC3c4ccccc4CCc4ccccc43)CC2)n1

>  <Increase>
9.8

$$$$
>  <compound>
C=CCNc1nc(NCC=C)nc(N2CCC(NCC(c3ccccc3)S(=O)(=O)c3ccccc3)CC2)n1 (centres undefined)

>  <Increase>
41.9

$$$$
>  <compound>
C=CCNc1nc(NCC=C)nc(N2CCC(NCC3c4ccccc4NC(=O)c4ccccc43)CC2)n1 (centres undefined)

>  <Increase>
48.4

$$$$
>  <compound>
C=CCNc1nc(NCC=C)nc(NCC2CCN(C3c4ccccc4CCc4ccccc43)CC2)n1

>  <Increase>
1.9

$$$$
>  <compound>
C=CCNc1nc(NCC=C)nc(N2CCC(NCC(c3ccc(F)cc3)c3ccc(F)cc3)CC2)n1

>  <Increase>
56.5

$$$$
>  <compound>
C=CCNc1nc(NCC=C)nc(N2CCC(NCC3c4ccccc4CCc4ccccc43)CC2)n1

>  <Increase>
53.6

$$$$
>  <compound>
C=CCNc1nc(N)nc(N2CCC(NCC3c4ccccc4CCc4ccccc43)CC2)n1

>  <Increase>
16.3

$$$$
>  <compound>
C=CCNc1nc(NCC=C)nc(NCCN2CCN(C3c4ccccc4CCc4ccccc43)CC2)n1

>  <Increase>
26.2

$$$$
>  <compound>
C=CCNc1nc(NCC=C)nc(NCCN2CCC(NC3c4ccccc4CCc4ccccc43)CC2)n1

>  <Increase>
14.5

$$$$
>  <compound>
C=CCNc1nc(NCC=C)nc(N2CCC(CNC3c4ccccc4CCc4ccccc43)CC2)n1

>  <Increase>
29.8

$$$$
>  <compound>
C=CCNc1nc(NCC=C)nc(N2CCC(NC3CC4c5ccccc5C3c3ccccc34)CC2)n1 (centres undefined)

>  <Increase>
43.8

$$$$
>  <compound>
C=CCNc1nc(NCC=C)nc(N2CCN(C3c4ccccc4CCc4ccccc43)CC2)n1

>  <Increase>
11.2

$$$$
>  <compound>
C=CCNc1nc(NCC=C)nc(NCC(O)CN2CCC(NCC3c4ccccc4CCc4ccccc43)CC2)n1 (centres undefined)

>  <Increase>
5.5

$$$$
>  <compound>
C=CCNc1nc(Cl)nc(N2CCC(NCC3c4ccccc4CCc4ccccc43)CC2)n1

>  <Increase>
33.8

$$$$
>  <compound>
C=CCNc1nc(NCC=C)nc(N2CCC(NC3c4ccccc4CCc4ccccc43)CC2)n1

>  <Increase>
34.2

$$$$
>  <compound>
C=CCNc1nc(NCC=C)nc(N2CCC(NCC3c4ccccc4COc4ccccc43)CC2)n1 (centres undefined)

>  <Increase>
53.7

$$$$
>  <compound>
C=CCNc1nc(NCC=C)nc(NCC(O)CN2CCN(C3c4ccccc4CCc4ccccc43)CC2)n1 (centres undefined)

>  <Increase>
29.2

$$$$
>  <compound>
C=CCNc1nc(NCC=C)nc(N2CCC(N(C)CC3c4ccccc4CCc4ccccc43)CC2)n1

>  <Increase>
25.6

$$$$
>  <compound>
C=CCNc1nc(NCC=C)nc(NCCN2CCC(NCC3c4ccccc4CCc4ccccc43)CC2)n1

>  <Increase>
20.9

$$$$
>  <compound>
C=CCNc1nc(NCC=C)nc(N2CCC(NCC3c4ccccc4CCCc4ccccc43)CC2)n1

>  <Increase>
44.1

$$$$
>  <compound>
C=CCNc1nc(NCC=C)nc(N2CCC(NCC(c3ccc(F)cc3)C3CCCCC3)CC2)n1 (centres undefined)

>  <Increase>
48.1

$$$$
>  <compound>
C=CCNc1nc(NCC=C)nc(NCC(O)CN2CCC(NC3c4ccccc4CCc4ccccc43)CC2)n1 (centres undefined)

>  <Increase>
13

$$$$
>  <compound>
C=CCNc1nc(NC)nc(N2CCC(NCC3c4ccccc4COc4ccccc43)CC2)n1 (centres undefined)

>  <Increase>
35

$$$$
>  <compound>
C=CCNc1nc(NCC=C)nc(N2CCN(NCC3c4ccccc4CCc4ccccc43)CC2)n1

>  <Increase>
22.8

$$$$
>  <compound>
C=CCNc1nc(NCC=C)nc(N2CCC(NCC3c4ccccc4CCc4cc(OC)ccc43)CC2)n1 (centres undefined)

>  <Increase>
72.6

$$$$
